Reference for the values: ChEMBL document CHEMBL1136365

- Species on record: Rattus norvegicus
- measurement-protocol: Tested for release of glutamic pyruvic transaminase (GPT) from CCl4 induced toxicity in primary cultures of rat hepatocytes at 10 uM concentration
- Assay type: functional, Hepatocyte
Decide using Relative protection alone. Strictly below 20%: 1.0. Equal to or above 20%: 0.0.

{"record-smiles": "COc1cc([C@H]2Oc3cc([C@H]4Oc5cc(O)cc(O)c5C(=O)[C@@H]4O)ccc3O[C@@H]2CO)ccc1O", "assigned-category": 0.0}
{"record-smiles": "O=Cc1ccc(CO)n1CCCC(=O)O", "assigned-category": 1.0}
{"record-smiles": "COCc1ccc(C=O)n1CCCC(=O)O", "assigned-category": 1.0}
{"record-smiles": "COC(=O)CCCn1c(C=O)ccc1CO", "assigned-category": 0.0}
{"record-smiles": "COCc1ccc(C=O)n1CCCC(=O)OC", "assigned-category": 1.0}
